The origin of these recorded values is patent US20060025430A1.

QUANTITY KIND: melting point

Example entries begin here.
[
  {
    "GIVEN SMILES": "COCC(=O)Nc1ccc2ncnc(Nc3cc(Cl)c(Cl)cc3F)c2c1",
    "melting point": "204 to 206 °C"
  },
  {
    "GIVEN SMILES": "O=C(CCl)Nc1ccc2ncnc(Nc3cccc(I)c3)c2c1",
    "melting point": "> 300 °C"
  },
  {
    "GIVEN SMILES": "COCC(=O)Nc1ccc2ncnc(Nc3cccc(Br)c3)c2c1",
    "melting point": "190 to 191 °C"
  },
  {
    "GIVEN SMILES": "O=C(CCl)Nc1ccc2ncnc(Nc3cc(Cl)c(Cl)cc3F)c2c1",
    "melting point": "> 300 °C"
  }
]

Below: the item to evaluate.
Quick one: melting point for "O=C(CCl)Nc1ccc2ncnc(Nc3cccc(Br)c3)c2c1" ?
> 300 °C
